System: CU-ACC2
test_method_notes: area under concentration-response curve (viability) (AUC (a.u.)); higher = less active
experimental_context: 48 h
Here the recorded area under concentration-response curve is given for each entry.
// return a plain number; no unit text

Study these solved cases before continuing.
C[S+](=O)([O-])c1ccc(C(=O)Nc2ccc(Cl)c(-c3ccccn3)c2)c(Cl)c1	674
CCC(=O)NC[C@H](Cc1ccc(OCCc2nc(-c3ccccc3)oc2C)cc1)N/C(C)=C\C(=O)c1ccc(C(F)(F)F)cc1	548
C[C@@H](c1ccc2nccn2c1)n1nnc2ncc(-c3cnn(C)c3)nc21	582

// query For the compound C[C@]\12CC[C@H](O)CC1=C/CC3C2CC[C@@]\4(C)C3C\C=C4[N]5C=NC6=C5C=CC=C6 (stereo partly specified) , what area under concentration-response curve is on record?
// result 516

// query Try COC1=C2OC(=O)\C=C/C2=CC3=C1OC=C3 next.
// result 482

// query Try CC(C)N(CCC(=O)c1ccc2ccccc2c1)Cc1ccccc1 next.
// result 609

// query Try CSC[C@H]1CN(Cc2c[nH]c3c(N)ncnc23)C[C@@H]1O next.
// result 417

// query Try CO[C@H]1C[C@@H]2CC[C@@H](C)[C@@](O)(O2)C(=O)C(=O)N2CCCC[C@H]2C(=O)O[C@H]([C@H](C)C[C@@H]2CC[C@@H](OCCO)[C@H](OC)C2)CC(=O)[C@H](C)/C=C(/C)[C@@H](O)[C@@H](OC)C(=O)[C@H](C)C[C@H](C)\C=C/C=C\C=C/1C next.
// result 439

// query Try Cc1cc(-c2ccc(CC(=O)Nc3ccc(-c4cccnc4)cc3)cc2)ccn1 next.
// result 460

// query Try CCCCC(=O)O[C@@]1([C@@H](C)C[C@H]2[C@@H]3CCC/4=C/C(=O)/C=C\[C@]4(C)[C@@]3(F)[C@@H](O)C[C@]12C)C(=O)CO next.
// result 555

// query Try CCCCOc1ccc(C(=O)Nc2ccc(F)cc2F)cc1 next.
// result 586

// query Try CC(=O)Nc1ccc(C(=O)Nc2ccccc2N)cc1 next.
// result 408

// query Try O=C(O)CCNc1cc(N2CCc3ccccc3CC2)nc(-c2cccnc2)n1 next.
// result 636

// query Try O=C(CCCCCCC(=O)N/N=C/c1ccc(N(c2ccccc2)c2ccccc2)cc1)NO next.
// result 371

// query Try O=C1N(c2ccccc2)c2ccccc2C1(Cc1ccncc1)Cc1ccncc1 next.
// result 543

// query Try CN1C(=O)N(c2cc(Cl)cc(Cl)c2)C(=O)[C@]12CN(Cc1cc(C(=O)O)cs1)C[C@H]2c1ccc(C#N)cc1 next.
// result 420

Hello, the source for this data is the supplement of paper PMC10949913, in case you need it.
